The reported numbers originate from patent US11969412B2.

tested on: immune cells (PBMCs plus granulocytes stimulated with A549 viral soup); assay: cells; type: cell-based, human; settings: Homo sapiens, A549, read-out: IC50 IL8
pIC50: −log10 of the molar value.
Output yes (1) for pIC50 not less than 9; output no (0) otherwise.

Solved cases below.
molecule="CCc1ccc(CCOc2ccc(CC3SC(=O)NC3=O)cc2)nc1 (centres unmarked)" group_label="yes (1)"
molecule=CNC(=O)c1ccc(C)c(-n2c(C)cc(OCc3ccc(F)cc3F)c(Br)c2=O)c1 group_label="no (0)"
molecule=O=C(Nc1c(Cl)cncc1Cl)c1ccc(OC(F)F)c(OCC2CC2)c1 group_label="yes (1)"

Attention now shifts to the item below.
Does C[C@H]1C[C@@H]2[C@H]([C@@H](O)C[C@@]3(C)[C@H]2CC[C@]3(O)C(=O)CO)[C@@]2(C)C=CC(=O)C=C12 have a reported pIC50 of at least 9?
no (0)
